- TARGET ENTITY: 5-hydroxytryptamine receptor 2C (Homo sapiens)
- Sequence (P28335 whole entry): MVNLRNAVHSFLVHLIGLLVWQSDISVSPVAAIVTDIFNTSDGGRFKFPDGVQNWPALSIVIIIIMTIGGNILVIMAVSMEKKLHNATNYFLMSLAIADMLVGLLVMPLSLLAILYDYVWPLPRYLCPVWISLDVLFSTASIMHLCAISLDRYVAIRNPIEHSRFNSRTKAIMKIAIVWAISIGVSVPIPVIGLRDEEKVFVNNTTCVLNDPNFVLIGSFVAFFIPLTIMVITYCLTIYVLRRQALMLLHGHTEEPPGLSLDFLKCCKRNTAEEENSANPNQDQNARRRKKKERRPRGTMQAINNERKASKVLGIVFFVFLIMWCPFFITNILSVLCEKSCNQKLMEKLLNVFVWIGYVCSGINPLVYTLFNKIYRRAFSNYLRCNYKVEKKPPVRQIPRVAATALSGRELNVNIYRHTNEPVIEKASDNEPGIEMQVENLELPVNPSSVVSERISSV
- PROTOCOL SUMMARY: Displacement of [3H]Mesulergine from human recombinant serotonin 5-HT2C expressed in CHO-K1 cells
Parameter IC50: see the listing below.

Some molecules with known IC50 results, for comparison:
[
  {
    "MOLECULE": "Cc1cccc(CN2CCNC(=O)C2CC(=O)O)c1 (stereo not drawn)",
    "ENDPOINT LABEL": "IC50",
    "RECORDED RESULT": "> 10 µM"
  },
  {
    "MOLECULE": "CCCNc1nc(Nc2ccccc2)c2cnn(C)c2n1",
    "ENDPOINT LABEL": "IC50",
    "RECORDED RESULT": "> 10 µM"
  }
]

Now look at this entry.
Which measured IC50 value corresponds to `Cc1noc(C(=O)NCCN2CCOCC2)c1Cl` ? > 10 µM
